Reported pIC50 values are given for each entry in this list.
assayedSystem: UniProt P06276
Sequence (P06276 whole entry): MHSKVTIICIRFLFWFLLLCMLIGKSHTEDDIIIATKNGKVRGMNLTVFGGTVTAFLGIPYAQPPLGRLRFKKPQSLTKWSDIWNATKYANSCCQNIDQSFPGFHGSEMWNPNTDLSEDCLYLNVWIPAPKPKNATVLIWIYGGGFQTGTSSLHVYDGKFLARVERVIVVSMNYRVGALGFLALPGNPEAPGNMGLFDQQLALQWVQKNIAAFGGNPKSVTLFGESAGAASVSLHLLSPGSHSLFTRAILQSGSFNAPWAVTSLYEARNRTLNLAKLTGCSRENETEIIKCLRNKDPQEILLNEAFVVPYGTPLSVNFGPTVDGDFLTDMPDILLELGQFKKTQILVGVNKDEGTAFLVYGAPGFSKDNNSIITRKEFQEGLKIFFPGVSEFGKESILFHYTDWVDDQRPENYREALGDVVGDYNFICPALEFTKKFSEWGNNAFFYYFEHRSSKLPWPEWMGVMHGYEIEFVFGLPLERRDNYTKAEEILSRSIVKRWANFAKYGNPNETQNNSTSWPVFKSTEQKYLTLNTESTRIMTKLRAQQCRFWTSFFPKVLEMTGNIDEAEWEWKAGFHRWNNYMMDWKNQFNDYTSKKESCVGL
methodDescription: Inhibition of human serum BChE using butyrylthiocholine iodide as substrate after 10 mins measured for every mins by Ellman's method
pIC50: −log10 of the molar value.

The examples below pair each entry with its known result.
# compound, pIC50
measured = [
    ("C(=N\\c1ccc(-c2nc3ccccc3o2)cc1)/c1ccccc1", "< 4.30"),
    ("Oc1ccc(NC(=S)Nc2ccc(-c3nc4ccccc4o3)cc2)cc1", 4.56),
    ("OC(CNc1ccc(Cl)cc1)CNc1ccc(-c2nc3ccccc3o2)cc1 (centres undefined)", 5.64),
    ("Oc1ccc(/C=N/c2ccc(-c3nc4ccccc4o3)cc2)cc1", 4.57),
    ("CC(C)c1ccc(NCC(O)CNc2ccc(-c3nc4ccccc4o3)cc2)cc1 (centres undefined)", "< 4.30"),
    ("O=[N+]([O-])c1ccc(NCC(O)CNc2ccc(-c3nc4ccccc4o3)cc2)cc1 (centres undefined)", "< 4.30"),
    ("CC(C)c1ccc(/C=N/c2ccc(-c3nc4ccccc4o3)cc2)cc1", "< 4.30"),
    ("Oc1ccc(NCC(O)CNc2ccc(-c3nc4ccccc4o3)cc2)cc1 (centres undefined)", 5.56),
]

Query: Name the reported pIC50 value associated with the compound OC(CNc1ccc(Br)cc1)CNc1ccc(-c2nc3ccccc3o2)cc1 (centres undefined)
Reply: < 4.30

Query: Name the reported pIC50 value associated with the compound `c1ccc(CNc2ccc(-c3nc4ccccc4o3)cc2)cc1`
Reply: < 4.30

Query: Name the reported pIC50 value associated with the compound `S=C(Nc1ccc(Br)cc1)Nc1ccc(-c2nc3ccccc3o2)cc1`
Reply: < 4.30

Query: Name the reported pIC50 value associated with the compound OC(CNc1ccccc1)CNc1ccc(-c2nc3ccccc3o2)cc1 (centres undefined)
Reply: 5.45

Query: Name the reported pIC50 value associated with the compound `O=[N+]([O-])c1ccc(CNc2ccc(-c3nc4ccccc4o3)cc2)cc1`
Reply: < 4.30

Query: Name the reported pIC50 value associated with the compound `O=[N+]([O-])c1ccc(/C=N/c2ccc(-c3nc4ccccc4o3)cc2)cc1`
Reply: < 4.30

Query: Name the reported pIC50 value associated with the compound `S=C(Nc1ccccc1)Nc1ccc(-c2nc3ccccc3o2)cc1`
Reply: < 4.30

Query: Name the reported pIC50 value associated with the compound `Brc1ccc(CNc2ccc(-c3nc4ccccc4o3)cc2)cc1`
Reply: < 4.30

Query: Name the reported pIC50 value associated with the compound `Clc1ccc(CNc2ccc(-c3nc4ccccc4o3)cc2)cc1`
Reply: < 4.30

Query: Name the reported pIC50 value associated with the compound `Oc1ccc(CNc2ccc(-c3nc4ccccc4o3)cc2)cc1`
Reply: 5.33

Query: Name the reported pIC50 value associated with the compound `O=[N+]([O-])c1ccc(NC(=S)Nc2ccc(-c3nc4ccccc4o3)cc2)cc1`
Reply: < 4.30

====

assayedSystem: Acetylcholinesterase (Electrophorus electricus, UniProt O42275)
Sequence (O42275 whole entry): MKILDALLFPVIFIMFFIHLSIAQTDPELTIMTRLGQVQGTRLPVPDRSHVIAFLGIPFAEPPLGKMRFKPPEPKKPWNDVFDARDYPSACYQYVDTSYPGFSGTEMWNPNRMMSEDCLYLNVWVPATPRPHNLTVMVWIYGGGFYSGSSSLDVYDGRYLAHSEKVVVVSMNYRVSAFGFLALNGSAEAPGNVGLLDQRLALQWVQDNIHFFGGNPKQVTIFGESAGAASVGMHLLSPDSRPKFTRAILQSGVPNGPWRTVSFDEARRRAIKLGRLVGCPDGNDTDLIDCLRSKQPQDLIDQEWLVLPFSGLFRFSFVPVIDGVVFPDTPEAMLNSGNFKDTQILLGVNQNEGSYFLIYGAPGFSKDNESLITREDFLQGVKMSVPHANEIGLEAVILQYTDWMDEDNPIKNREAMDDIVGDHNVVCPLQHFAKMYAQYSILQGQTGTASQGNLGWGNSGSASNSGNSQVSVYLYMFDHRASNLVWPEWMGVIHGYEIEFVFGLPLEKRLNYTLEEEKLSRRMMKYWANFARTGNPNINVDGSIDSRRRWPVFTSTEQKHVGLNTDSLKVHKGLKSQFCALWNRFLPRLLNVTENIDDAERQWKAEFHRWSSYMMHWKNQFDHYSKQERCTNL
property: Ki (nM)
// units = nM; emit number, no label

Query: Name the reported Ki value associated with the compound OC(CNc1ccc(Cl)cc1)CNc1ccc(-c2nc3ccccc3o2)cc1 (stereo unspecified)
Reply: 190

====

assayedSystem: Acetylcholinesterase (Electrophorus electricus, UniProt O42275)
pIC50: −log10 of the molar value.
Decide by pIC50: equal to or exceeding 5 means T, less means F.

Below are worked cases with known answers.
# molecule, assignedLabel
records = [
    ("S=C(Nc1ccccc1)Nc1ccc(-c2nc3ccccc3o2)cc1", "F"),
    ("CC(C)c1ccc(/C=N/c2ccc(-c3nc4ccccc4o3)cc2)cc1", "F"),
    ("Brc1ccc(/C=N/c2ccc(-c3nc4ccccc4o3)cc2)cc1", "F"),
    ("Oc1ccc(NC(=S)Nc2ccc(-c3nc4ccccc4o3)cc2)cc1", "T"),
    ("CC(C)c1ccc(CNc2ccc(-c3nc4ccccc4o3)cc2)cc1", "F"),
    ("Clc1ccc(/C=N/c2ccc(-c3nc4ccccc4o3)cc2)cc1", "T"),
    ("OC(CNc1ccccc1)CNc1ccc(-c2nc3ccccc3o2)cc1 (configuration not stated)", "T"),
    ("O=[N+]([O-])c1ccc(NCC(O)CNc2ccc(-c3nc4ccccc4o3)cc2)cc1 (configuration not stated)", "T"),
    ("Oc1ccc(CNc2ccc(-c3nc4ccccc4o3)cc2)cc1", "T"),
    ("C(=N\\c1ccc(-c2nc3ccccc3o2)cc1)/c1ccccc1", "F"),
]

Query: Identify whether the reported pIC50 of the following molecule is 5 or greater: OC(CNc1ccc(Cl)cc1)CNc1ccc(-c2nc3ccccc3o2)cc1 (configuration not stated)
Reply: T

Query: Identify whether the reported pIC50 of the following molecule is 5 or greater: `Clc1ccc(CNc2ccc(-c3nc4ccccc4o3)cc2)cc1`
Reply: T

The values you see were collected from ChEMBL document CHEMBL4330060.
